Data origin: patent US6642434B1

- Test system: Synechocystis γ-tocopherol methyltransferase (SLR0089)
- method.description: γ-TMT assay with Synechocystis SLR0089 protein expressed in E. coli
- Assay type: biochemical, Synechocystis PCC6803
- cond: 5 mM substrate, pH 7.5, 14C-methyl-SAM, 30 minutes room temperature
parameter.measured: use as substrate (methylation) by Synechocystis γ-TMT

* Cc1cc2c(c(C)c1O)CCC(C)(CCCC(C)CCCC(C)CCCC(C)C)O2 (stereo not drawn) | unable to use
* CC(C)CCCC(C)CCCC(C)CCCC1(C)CCc2cc(O)ccc2O1 (stereo not drawn) | unable to use
* CC(C)=CCC/C(C)=C/CC/C(C)=C/CC[C@]1(C)CCc2cc(O)c(C)c(C)c2O1 | unable to use
* Cc1cc(O)c(C)c2c1O[C@](C)(CCC[C@H](C)CCC[C@H](C)CCCC(C)C)CC2 | unable to use
